protocol details: Drug reactivity against cysteine in PBS buffer by NMR assay
The source made the active and inactive calls. No cut-off for these calls is given here.
Allowed answers: T = active, F = inactive

| molecule | class label |
| --- | --- |
| C=CC(=O)Nc1ccccc1 | T |
| N#Cc1ncccn1 | T |
| O=C1CC(c2ccccc2)N1 (stereo unspecified) | F |

Please turn your attention to the following entry.
Input: Tell me the assay call for c1ccc(C2CO2)cc1 (stereo unspecified) please.
Output: T

###

protocol details: Drug reactivity against serine in PBS buffer by NMR assay
Active and inactive are the calls of the source. The calls are words filed in the database; no cut-off is given here.
Return exactly one item of active, inactive

Input: # fetch the recorded call for `C#CC(=O)c1ccccc1` here
Output: active

Input: I'd appreciate the recorded outcome for `CN(C)C/C=C/C(=O)Nc1ccccc1` from this test.
Output: active

Input: For `O=C1CCN1c1ccccc1` , which call appears in the assay record?
Output: inactive

Input: Record request — test call for `OB1OCc2ccccc21`
Output: inactive

Input: Test call for this compound, please: `N#Cc1ccccn1`
Output: inactive

Input: Outcome? `O=C(c1ccccc1)C(F)(F)F`
Output: inactive

Input: Fill in: this test's call for `COC(=O)Nc1ccccc1` is ___
Output: active
